# method_description: detection-format interference in TR-FRET ratio – biochemical, artefact control for PPARgamma SRC-2 agonist project, primary screen (AID 1049)
# condition_details: TR-FRET artefact counter-screen; at 8 µM; stronger effect = higher value
Among all 200,000 compounds or so, about 780 (0.39%) were called active. What follows is part of a selection rich in actives, with near analogues and random picks from the rest.
measured_property: TR-FRET ratio
Numbers only.

// solved cases for TR-FRET ratio follow
O=C(c1ccncc1)c1ccc([N+](=O)[O-])cc1 ... 1700
COc1cc(C=O)c(Br)cc1OCC(=O)NCc1ccccc1 ... 1530
COC(=O)C(C)NC(=O)COc1ccc2ccccc2c1 (stereo unspecified) ... 1440
COc1cc2c(cc1OC)C(Nc1ccc(S(N)(=O)=O)cc1)=NC(C)(C)C2 ... 2460
Cc1ccc(C)c(-n2cc(CN3CCN(C(=O)c4ncn[nH]4)CC3)c(-c3ccccc3)n2)c1 ... 1390
COc1cc2c(cc1O)C(SC)=NC(C)(C)C2 ... 1660
COC(=O)c1ccc(-c2noc(CN(Cc3ccccn3)CC3CCCO3)n2)cc1 (stereo unspecified) ... 1700
Cc1cc2ccccc2n1CCC(=O)O ... 1790
O=C(CSc1c2c(nc3ccc(Cl)cc13)CCCC2)NCc1ccco1 ... 2000
CCOc1ccc(C(=O)Nc2cccc(-c3ccc4nncn4n3)c2)cc1 ... 1400

Record NC1=NC(=O)C(Cc2cccc(Cl)c2)S1 (stereo unspecified) . Reported TR-FRET ratio: 1490

----------
# method_description: detection-format interference in TR-FRET ratio – biochemical, artefact control for PPARgamma SRC-2 agonist project, primary screen (AID 1049)
# condition_details: TR-FRET artefact counter-screen; at 8 µM; stronger effect = higher value
Screen size: about 200,000 compounds; about 780 (0.39%) were called active. The sample holds actives, similar compounds and a random draw of the others, so the mix is not that of the screen.
measured_property: TR-FRET ratio
Numbers only.

O=C(O)CC/C(=N\NC(=O)c1ccc(F)cc1)c1ccc(Br)cc1 ... 1580

Give measured TR-FRET ratio for every item shown.
1. CCN(C(=O)COC(=O)c1c(NC(C)=O)sc(C)c1C)C1CCS(=O)(=O)C1 (centres undefined)
2. Cc1ccccc1-c1n[nH]c(=S)n1/N=C/c1ccc(-c2ccccc2Br)o1
3. O=C(/C=C/Nc1ccccc1OC(F)(F)F)C(F)(F)F
4. Cc1nnc(SCc2cccc(Cl)c2)n(N)c1=O
5. C/C=C(\C)C(=O)NCCN1C2=NC[C@H](Cc3ccc(O)cc3)N2C[C@@H]1Cc1ccc(OC)cc1
6. O=C(Oc1ccccc1)Oc1ccc2c(c1)oc(=O)c1ccccc12

[A]
1. 1610
2. 2460
3. 1490
4. 1460
5. 1390
6. 2370

List TR-FRET ratio for every entry below, keeping the order given.
1. CN(CC(=O)N1CCN(c2ccccc2)CC1)S(=O)(=O)c1cccs1
2. Cc1c(Cc2ccccc2)c(=O)oc2cc(OCC(N)=O)ccc12

[A]
[1460, 1400]

Give one value of TR-FRET ratio per listed compound.
1. CC(=O)c1sc2nc(SCC(=O)N3CCCCC3)[nH]c(=O)c2c1C
2. N#Cc1ccc(-c2ccc(Cl)cc2)nc1Oc1ccc(F)cc1
3. Cc1ccccc1-c1n[nH]c(=S)n1C
4. C=CCNC(=O)CSc1nc2sc(C)c(C)c2c(=O)[nH]1
5. COc1cccc(NC(=S)N(Cc2ccc(C)cc2)Cc2ccccn2)c1
6. COc1ccc(C2=NN(c3nc4ccccc4s3)C(=O)C2)cc1
7. COc1cccc(NC(=O)CN(C)C(C)C(=O)Nc2ccc(C#N)cc2)c1 (centres undefined)

[A]
[1990, 5180, 1570, 1430, 1700, 1550, 1560]

Quick request: TR-FRET ratio for each listed item, please.
1. Cc1cccc(OCc2nnc(SCC(=O)N3CCN(C(=O)c4ccco4)CC3)n2C)c1C
2. O=C(Nc1c2c(nc3ccccc13)CCCC2)c1ccccc1Br
3. COc1cc(NC(=O)COC(=O)CSc2ccc3ccccc3c2)c(C)cc1[N+](=O)[O-]

[A]
1. 1760
2. 1590
3. 1450
